For UniProt:P30872, measured IC50 is reported for the entries below.

{"query-smiles": "O=C(NC1CCNCC1)C(F)(F)Oc1ccccc1", "IC50": "> 50.1 µM"}
{"query-smiles": "C[C@H]1CN(C)CC[C@@H]1NC(=O)C1(Cc2ccc(F)cc2)CC1", "IC50": "5.89 µM"}
{"query-smiles": "N#Cc1ccccc1OC(F)(F)C(=O)NC1CCNCC1", "IC50": "> 50.1 µM"}
{"query-smiles": "O=C(NC1CCNCC1)C(F)(F)Oc1ccccc1Cl", "IC50": "> 50.1 µM"}
{"query-smiles": "C[C@H]1C[C@H](NC(=O)C(F)(F)Oc2ccccc2)CCN1", "IC50": "> 50.1 µM"}

---

For SSTR1 (Homo sapiens (Human)), measured IC50 is reported for the entries below.
measurement-kind: IC50 (µM)

{"compound": "C[C@H]1CNCC[C@@H]1NC(=O)C1(Cc2ccc(F)cc2)CC1 [Example 13]", "result-operator": "=", "reported-measurement": 8.71}
{"compound": "C[C@H]1CNCC[C@@H]1NC(=O)C(F)(F)Cc1ccccc1 [Example 26]", "result-operator": ">", "reported-measurement": 50.1}
{"compound": "Cc1ccc(OC(F)(F)C(=O)NC2CCNCC2)cc1 [Example 34]", "result-operator": ">", "reported-measurement": 50.1}
{"compound": "C[C@H]1CNCC[C@@H]1NC(=O)C(F)(F)Oc1ccccc1F [Example 54]", "result-operator": ">", "reported-measurement": 50.1}
{"compound": "Cc1ccccc1OC(F)(F)C(=O)N[C@H]1CCNC[C@@H]1C [Example 56]", "result-operator": "=", "reported-measurement": 44.7}

---

Below, each of the molecules is paired with its reported pIC50 value.
Target: SSTR1 (Homo sapiens (Human), UniProt P30872);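 note: binding assay on CHO-K1 cell membranes overexpressing SSTR1, incubated 60 min at room temperature, bound fraction collected on filters and read by scintillation counting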
Sequence (P30872 whole entry): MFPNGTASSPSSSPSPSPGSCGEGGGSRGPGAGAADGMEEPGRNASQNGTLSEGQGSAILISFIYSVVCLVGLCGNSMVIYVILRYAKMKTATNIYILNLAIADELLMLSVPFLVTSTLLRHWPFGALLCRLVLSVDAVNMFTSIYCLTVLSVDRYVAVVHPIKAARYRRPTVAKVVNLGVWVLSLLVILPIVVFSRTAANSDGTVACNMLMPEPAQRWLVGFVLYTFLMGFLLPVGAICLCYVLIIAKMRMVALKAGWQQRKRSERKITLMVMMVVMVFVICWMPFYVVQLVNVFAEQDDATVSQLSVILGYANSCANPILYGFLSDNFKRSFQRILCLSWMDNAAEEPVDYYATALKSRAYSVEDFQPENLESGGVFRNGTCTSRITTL
pIC50: −log10 of the molar value.
measurement-kind: pIC50

{"molecule": "C[C@H]1CN(C)CC[C@@H]1NC(=O)C1(Cc2cccc(Cl)c2)CC1 [Example 36]", "result-operator": "=", "reported-measurement": 5.33}
{"molecule": "Cc1ccccc1CC1(C(=O)N[C@H]2CCNC[C@@H]2F)CC1 [Example 24]", "result-operator": "<", "reported-measurement": 4.30}
{"molecule": "O=C(N[C@H]1CCNC[C@@H]1F)C1(Cc2ccc(Cl)cc2)CC1 [Example 23]", "result-operator": "=", "reported-measurement": 4.37}
{"molecule": "C[C@H]1CNCC[C@@H]1NC(=O)C(F)(F)Oc1ccccc1C#N [Example 33]", "result-operator": "<", "reported-measurement": 4.30}
{"molecule": "O=C(N[C@H]1CCNC[C@@H]1F)C1(Cc2cccc(Cl)c2)CC1 [Example 27]", "result-operator": "<", "reported-measurement": 4.30}
{"molecule": "C[C@H]1CNCC[C@@H]1NC(=O)C(F)(F)Oc1ccccc1Cl [Example 64]", "result-operator": "=", "reported-measurement": 4.72}
{"molecule": "C[C@@H]1C[C@H](NC(=O)C2(CN(C)c3cccc(Cl)n3)CC2)CCN1C [Example 41]", "result-operator": "<", "reported-measurement": 4.30}
{"molecule": "C[C@H]1C[C@@H](NC(=O)C(F)(F)Oc2ccccc2)CCN1 [Example 48]", "result-operator": "<", "reported-measurement": 4.30}
{"molecule": "C[C@H]1CNCC[C@@H]1NC(=O)C(F)(F)Oc1ccc(F)cc1 [Example 58]", "result-operator": "=", "reported-measurement": 4.33}
